# assay notes: Cytotoxicity against human FS5 cells assessed as cell survival after 48 hrs by MTT assay relative to control
# Type: cell-based
# Set-up: concentration or dose not given beside the values
# condition description: read-out: Survival
property: viability at 48 h
Please make sure the unit comes right after the number.

Asked: Provide one value: measured viability at 48 h of "C=C(C)[C@@H]1CC[C@]2(C(=O)O)CC[C@]3(C)[C@H](CC[C@@H]4[C@@]5(C)CC[C@H](O)C(C)(C)[C@@H]5CC[C@]43C)[C@@H]12"
Given back: 39%

Asked: Provide one value: measured viability at 48 h of "C=C(C)[C@@H]1CC[C@]2(C(=O)O)CC[C@]3(C)[C@H](CC[C@@H]4[C@@]5(C)[C@@H](CO)[C@H](O)C(C)(C)[C@@H]5CC[C@]43C)[C@@H]12"
Given back: 43%

Asked: Provide one value: measured viability at 48 h of "C=C(C)[C@@H]1CC[C@]2(C(=O)O)CC[C@]3(C)[C@H](CC[C@@H]4[C@@]5(C)[C@@H](C(=O)O)[C@H](O)C(C)(C)[C@@H]5CC[C@]43C)[C@@H]12"
Given back: 81%

Asked: Provide one value: measured viability at 48 h of "C=C(C)[C@@H]1CC[C@]2(C(=O)O)CC[C@]3(C)[C@H](CC[C@@H]4[C@@]5(C)C[C@H](O)C(C)(C)[C@@H]5CC[C@]43C)[C@@H]12"
Given back: 67%

Asked: Provide one value: measured viability at 48 h of "C=C(C)[C@@H]1CC[C@]2(C(=O)O)CC[C@]3(C)[C@H](CC[C@@H]4[C@@]5(C)CCC(C)(C)[C@@H]5CC[C@]43C)[C@@H]12"
Given back: 85%

====

# assay notes: Cytotoxicity against human FS5 cells assessed as cell survival after 48 hrs by MTT assay relative to control
# Format: cell-based
# Design: concentration or dose not given beside the values
# condition description: read-out: Survival
property: viability at 48 h (%)
Number only, in %; omit the unit.

Asked: Provide one value: measured viability at 48 h of "C=C(C)[C@@H]1CC[C@]2(C(=O)O)CC[C@]3(C)[C@H](CC[C@@H]4[C@@]5(C)C=CC(C)(C)[C@@H]5CC[C@]43C)[C@@H]12"
Given back: 33

Asked: Provide one value: measured viability at 48 h of "C=C(C)[C@@H]1CC[C@]2(C(=O)O)CC[C@]3(C)[C@H](CC[C@@H]4[C@@]5(C)C(C(=O)O)=CC(C)(C)[C@@H]5CC[C@]43C)[C@@H]12"
Given back: 87

Asked: Provide one value: measured viability at 48 h of "C=C(C)[C@@H]1CC[C@]2(C(=O)O)CC[C@]3(C)[C@H](CC[C@@H]4[C@@]5(C)CC(=O)C(C)(C)[C@@H]5CC[C@]43C)[C@@H]12"
Given back: 16
